Data origin, for the record: the supplement of paper PMC3334620

# targetOrTestSystem: Stb4 (UniProt P50104)
# Sequence (P50104 whole entry): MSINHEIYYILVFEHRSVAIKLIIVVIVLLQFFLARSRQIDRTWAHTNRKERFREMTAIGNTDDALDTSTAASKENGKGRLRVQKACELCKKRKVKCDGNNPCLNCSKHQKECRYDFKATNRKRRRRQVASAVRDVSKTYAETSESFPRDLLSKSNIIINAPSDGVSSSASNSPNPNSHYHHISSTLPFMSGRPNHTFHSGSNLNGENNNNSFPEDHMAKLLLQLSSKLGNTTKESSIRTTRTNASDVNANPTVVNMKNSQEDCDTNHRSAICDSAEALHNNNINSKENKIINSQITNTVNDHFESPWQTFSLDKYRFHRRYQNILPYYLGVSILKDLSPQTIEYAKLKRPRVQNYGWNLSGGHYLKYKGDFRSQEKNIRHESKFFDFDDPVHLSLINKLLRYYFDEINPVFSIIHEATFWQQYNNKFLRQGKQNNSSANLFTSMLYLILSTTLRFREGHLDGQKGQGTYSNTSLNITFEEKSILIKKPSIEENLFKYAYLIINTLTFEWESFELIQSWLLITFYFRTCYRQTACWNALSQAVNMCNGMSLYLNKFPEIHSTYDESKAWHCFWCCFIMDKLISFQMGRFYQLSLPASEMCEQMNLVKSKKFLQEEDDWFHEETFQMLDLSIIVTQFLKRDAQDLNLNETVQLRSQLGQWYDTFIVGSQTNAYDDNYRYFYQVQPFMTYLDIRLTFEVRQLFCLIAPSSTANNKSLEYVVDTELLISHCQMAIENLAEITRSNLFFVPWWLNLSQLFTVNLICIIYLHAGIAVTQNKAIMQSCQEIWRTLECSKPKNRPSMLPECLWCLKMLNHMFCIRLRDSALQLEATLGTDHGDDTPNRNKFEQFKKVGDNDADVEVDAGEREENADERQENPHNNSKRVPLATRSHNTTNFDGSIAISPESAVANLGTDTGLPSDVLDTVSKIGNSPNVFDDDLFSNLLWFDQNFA
# assayDetails: PBM E-score (8-mer binding enrichment) (E-score (-0.5 to 0.5)); higher = stronger / more preferred TF binding
# testContext: protein concentration: 200 nM; construct: GST-DNA-binding domain
Over roughly 33,000 sequences, “E-score (-0.5 to 0.5)” has its median near -0.056; the highest 2% begin near 0.38. What follows is part of a selection rich in the highest values, with near analogues and random picks from the rest.
measuredEndpoint: PBM E-score
The answer should be written as a number, with no unit following it.

Some sequences with known PBM E-score results, for comparison:
Given the sequence `ATTCGGGC` , what is its reported PBM E-score?
0.301

Which PBM E-score value is on record for `GAACCCGA` ?
0.338

Which PBM E-score value belongs to `CCGAATTA` ?
0.363

State the recorded PBM E-score for this entry: `CTCGGGCC`
0.343

Entry under review: `ATTTTCGA` . Reported PBM E-score?
-0.256

What value of PBM E-score has been reported for the following sequence? `ATCGGGTC`
0.325

***
PBM E-score for `AAGCCGAG` ?
0.401

Please give the measured PBM E-score for this sequence: `CCGAGGAG`
0.393

Item `CCCCCGAG` has what recorded PBM E-score?
0.352

Value lookup for PBM E-score; key = `AGGTCCGA`
0.304

What PBM E-score value was documented for this sequence, `GGAAGTGA` ?
0.245

Give the measured PBM E-score of `AGTTCCCC` .
0.138

Suppose we examine the sequence `AACCCGAG` ; what PBM E-score value has been reported?
0.406

Report PBM E-score for `CACCCGAC` please.
0.384

Consider the sequence shown here: `CAATTTGA` What is its recorded PBM E-score?
-0.046

Look up PBM E-score for this sequence: `TGACCCAA`
-0.235

I'd like to know its PBM E-score. The sequence in question is `AGTTCCGC`
0.324

Bench note: what PBM E-score did `ACCCCGAG` show?
0.333

What value of PBM E-score has been reported for the following sequence? `CACCCGAG`
0.448

Using the record for `ATACCGAG` , report its PBM E-score.
0.377

Form field: reported PBM E-score of `CCGAATAC`
0.425

Return reported PBM E-score; argument: `CGGTCCGA`
0.449

Which PBM E-score is listed for `GGAGGATA` ?
-0.0736

Quick check: PBM E-score of `AAGCCAAA` ?
-0.0671

* * *

# targetOrTestSystem: Stb4 (UniProt P50104)
# assayDetails: PBM E-score (8-mer binding enrichment) (E-score (-0.5 to 0.5)); higher = stronger / more preferred TF binding
# testContext: protein concentration: 200 nM; construct: GST-DNA-binding domain
In all, about 33,000 sequences were measured (“E-score (-0.5 to 0.5)”: median about -0.056, highest 2% from about 0.38 on). Shown is part of a subset that was picked to be rich in the highest values.
Would you mind labelling by PBM E-score? At or over 0.2 is true, under is false.

Here are 4 sequences together with their reported answers.
Exam item: decide whether the reported PBM E-score for `GTCCGATA` is at least 0.2.
true

Given the entry `CCGGATGC` , answer whether its PBM E-score meets or surpasses 0.2.
true

Evaluate `ACCCGATC` : PBM E-score at minimum 0.2?
true

Hi, just wondering whether `CGATCCTA` shows PBM E-score of 0.2 or higher.
false

Further cases:
Can `ATTAGCAC` be said to have PBM E-score at or above 0.2?
false

* * *

# targetOrTestSystem: Stb4 (UniProt P50104)
# assayDetails: PBM E-score (8-mer binding enrichment) (E-score (-0.5 to 0.5)); higher = stronger / more preferred TF binding
# testContext: protein concentration: 200 nM; construct: GST-DNA-binding domain
Over roughly 33,000 sequences, “E-score (-0.5 to 0.5)” has its median near -0.056; the highest 2% begin near 0.38. The list comes from a sample in which the highest values are over-represented; it also holds close analogues and randomly drawn sequences.
measuredEndpoint: PBM E-score
Lab note: jot down the number only; don't add units.

Examples from the recorded data:
Lab request: please report PBM E-score under test system Stb4 (UniProt P50104) for `CCTCGGCC`
0.313

What measured PBM E-score is associated with `ATTTTCCA` on Stb4 (UniProt P50104)?
-0.0573

Find the measured PBM E-score: item `GCGAAGTA` , target or system Stb4 (UniProt P50104).
-0.0361

Continuing:
Checklist item: PBM E-score tested on Stb4 (UniProt P50104), entry `GCAAAAAC` , value?
-0.0252

Give Stb4 (UniProt P50104) PBM E-score for `GCGAGCGA`
-0.0989

Missing value: PBM E-score, Stb4 (UniProt P50104), entry `ACAACGGC` . Fill in?
0.108

Any idea what PBM E-score came out for `ATACGGAA` on Stb4 (UniProt P50104)?
0.36

Could you share what PBM E-score was measured for `TAACTTCA` , tested on Stb4 (UniProt P50104)?
-0.143

Identify the measured PBM E-score of `ACGGAAGG` for Stb4 (UniProt P50104).
0.313

* * *

# targetOrTestSystem: Stb4 (UniProt P50104)
# assayDetails: PBM E-score (8-mer binding enrichment) (E-score (-0.5 to 0.5)); higher = stronger / more preferred TF binding
# testContext: protein concentration: 200 nM; construct: GST-DNA-binding domain
Over roughly 33,000 sequences, “E-score (-0.5 to 0.5)” has its median near -0.056; the highest 2% begin near 0.38. The entries come from a sample that favours the highest values as a whole.
Could you please classify the records by PBM E-score using these ranges: lower bin = under -0.1, middle bin = from -0.1 up to 0.2, upper bin = 0.2 and over

Hi, small favor: classify `GAACCACC` by its PBM E-score when you get a moment.
upper bin

Band for the recorded PBM E-score of `GAGAGACC` ?
lower bin

Which bin, given its PBM E-score, does `AGTTCGTG` occupy?
lower bin

Where would `AGACCCGG` land among the classes by reported PBM E-score?
upper bin

Sort into band: `ATCATCCG`
upper bin

Kindly consider the entry below.
Hi there! Could you help me figure out the category for `GATGCCAC` please?
middle bin

* * *

List of PBM E-score values.
# targetOrTestSystem: Stb4 (UniProt P50104)
# assayDetails: PBM E-score (8-mer binding enrichment) (E-score (-0.5 to 0.5)); higher = stronger / more preferred TF binding
# testContext: protein concentration: 200 nM; construct: GST-DNA-binding domain
Over roughly 33,000 sequences, “E-score (-0.5 to 0.5)” has its median near -0.056; the highest 2% begin near 0.38. Only a selection was taken, and the highest values are over-represented in it overall.
Reply: number alone, nothing else.

Below, each entry is followed by its recorded PBM E-score result.
Data request, read-out PBM E-score, for `CACGTGTA`
-0.0718

Report PBM E-score for `CGGAGGAG` please.
0.209

# get_value(readout='PBM E-score', item= `ACGAATAC` )
-0.0867

More entries:
PBM E-score for `ATCTATTA` ?
0.0372

Sample `CAGCCGAA` — what was its PBM E-score?
0.392

I have this sequence here, `AAACCCGC` , and I need its recorded PBM E-score.
0.246

* * *

# targetOrTestSystem: Stb4 (UniProt P50104)
# assayDetails: PBM E-score (8-mer binding enrichment) (E-score (-0.5 to 0.5)); higher = stronger / more preferred TF binding
# testContext: protein concentration: 200 nM; construct: GST-DNA-binding domain
The full ranking holds about 33,000 sequences; the median of “E-score (-0.5 to 0.5)” is about -0.056, and the highest 2% start at about 0.38. This is one part of a sample in which the highest values are shown more often than they occur.
Everything with PBM E-score lower than 0.05 is No; everything else, including exactly 0.05, is Yes.

Here's what some known entries look like.
Decide: is the reported value of PBM E-score for `ACGAAAAG` equal to or greater than 0.05?
No

Has `CACGCATG` a recorded PBM E-score greater than or equal to 0.05?
No

In plain terms: is recorded PBM E-score at least 0.05 for `AGATCCGA` ?
Yes

Please check the record `TCGGATCA` and state if its PBM E-score is at or above 0.05.
Yes

PBM E-score >= 0.05 for `ATCCGATA` ?
Yes

Reported PBM E-score reaches at least 0.05 for `ATCCGATG` ?
Yes

Please tell me: is the sequence `GAGAAATA` at or over 0.05 in terms of PBM E-score?
No

Kindly determine if PBM E-score recorded for `AAAGGGTC` is above or exactly 0.05.
No

New cases:
Threshold query (PBM E-score >= 0.05) on `GGGAAGAA`
Yes

Hi team, for `AGATCCCT` , is the recorded PBM E-score at or above 0.05?
No

Textbook exercise: given the entry `ACGGATGC` , state whether its PBM E-score is greater than or equal to 0.05.
Yes

Given the entry `CGGAAGTC` , answer whether its PBM E-score meets or surpasses 0.05.
Yes

In plain terms: is recorded PBM E-score at least 0.05 for `AACTTCGT` ?
No

# bool: PBM E-score of `AGGAAGTA` >= 0.05
Yes

Threshold query (PBM E-score >= 0.05) on `ATCTTCGC`
No

Answer whether PBM E-score of `CCCAGACG` is greater than or equal to 0.05.
No
